Tested on: NCI-H460 lung
Test: NCI-60 one-dose screen, 48 h (100 = growth as untreated, 0 = no growth, -100 = all killed)
Conditions: 10 µM unless noted
About 83,000 compounds went through this panel and 20% of them were active in at least one assay; those are over-represented in the sample as a whole.
endpoint: growth (%)

[[record]]
compound = "ClC1=C(Br)C(Br)(Br)C(=C(Br)Br)C1(Br)Br"
endpoint = "growth"
recorded_result = 94.7

[[record]]
compound = "COc1cc2c(=O)n(CCCN(C)C)c3c4cc5c(cc4ccc3c2cc1OC)OCO5"
endpoint = "growth"
recorded_result = 18.2

[[record]]
compound = "COc1ccc2c(c1)oc1c(C)c3c(c(C)c12)C(=O)N(N)C3=O"
endpoint = "growth"
recorded_result = 8

[[record]]
compound = "C/C=C(\\C)C(=O)NC1=CC[C@@]2(C)C(=CCC3C2CC[C@@]2(C)C3CC[C@@H]2C(C)N(C)C)C1=O (stereo not given in full)"
endpoint = "growth"
recorded_result = 17.4

[[record]]
compound = "O=C(C1CCC1)N1N=C(c2ccc(-n3ccc(C(F)(F)F)n3)cc2)CC1c1ccc[nH]1 (stereo not given)"
endpoint = "growth"
recorded_result = 101

[[record]]
compound = "CN1CCC(=C(c2ccccc2)c2ccccc2)C(c2ccccc2)C1 (stereo not given)"
endpoint = "growth"
recorded_result = 103

[[record]]
compound = "COC(=O)C1=C(C(=O)ON)C2C=CC1(C(Cc1ccccc1)Nc1ccccc1)O2 (stereo not given)"
endpoint = "growth"
recorded_result = 103

[[record]]
compound = "COc1ccc(/C=C/c2nc(Nc3ccc(S(=O)(=O)NC(C)=O)cc3)c3ccccc3n2)cc1"
endpoint = "growth"
recorded_result = 64.7

[[record]]
compound = "O=C(Cc1ccccc1)NNc1nc(Cl)nc(N2CCN(C(c3ccccc3)c3ccccc3)CC2)n1"
endpoint = "growth"
recorded_result = 102

[[record]]
compound = "Cc1cc2nc3c4cc([N+](=O)[O-])ccc4n(CCN(C)C)c3nc2cc1C"
endpoint = "growth"
recorded_result = 1.25

[[record]]
compound = "CCCCCCCCOc1ccc(/C=N/Nc2cc(C)nc3ccc(Br)cc23)cc1"
endpoint = "growth"
recorded_result = 16.1

[[record]]
compound = "O=C(O)c1ccc2c(c1)C(=O)N(Cc1ccccc1)C2=O"
endpoint = "growth"
recorded_result = 102

[[record]]
compound = "N/C(=N\\C(N)=N\\c1nc2ccccc2s1)c1cccc(Cl)c1"
endpoint = "growth"
recorded_result = 51.7

[[record]]
compound = "O=C(CCN1CCCC1)Nc1ccc2c(NCCCCc3ccccc3)c3ccccc3nc2c1"
endpoint = "growth"
recorded_result = -69

[[record]]
compound = "CCCCCC(=O)Oc1ccc(/C(=C(/C)Cc2ccc(OC)cc2)c2ccc(OCCCN(C)C)cc2)cc1"
endpoint = "growth"
recorded_result = 69.6

[[record]]
compound = "CN1CCN(C(=O)[C@]23CCC(C)(C)C[C@H]2C2=CC[C@@H]4[C@@]5(C)C/C(=C/c6ccncc6)C(=O)C(C)(C)[C@@H]5CC[C@@]4(C)[C@]2(C)CC3)CC1"
endpoint = "growth"
recorded_result = 33.1

[[record]]
compound = "CCN1CCN(CCNc2nccc(-c3c(-c4cccc(OC)c4)nc4occn34)n2)S1(=O)=O"
endpoint = "growth"
recorded_result = 96.7

[[record]]
compound = "Cc1c(C(=O)NCCC(=O)NO)sc2ncnc(Nc3ccc(NC(=O)Nc4cccc(C(F)(F)F)c4)cc3)c12"
endpoint = "growth"
recorded_result = 99.4

[[record]]
compound = "OCc1cnccc1NCCCCOc1ccc(Oc2ccccc2)cc1"
endpoint = "growth"
recorded_result = 69.6

[[record]]
compound = "O=C1c2ccc3c4c(ccc(c24)C(=O)N1CCCNCc1ccccc1)C(=O)N(CCCNCc1ccccc1)C3=O"
endpoint = "growth"
recorded_result = -73.1

[[record]]
compound = "O=C1c2cccc3c(-c4ccc5c(c4)ncn5C4CCCCC4)ccc(c23)C(=O)N1CCO"
endpoint = "growth"
recorded_result = 94.1

[[record]]
compound = "CCN(CC)CC[n+]1cc2cc(OC)c(OC)cc2c2ccc3cc4c(cc3c21)OCO4"
endpoint = "growth"
recorded_result = -65.7

[[record]]
compound = "NC(=O)Nc1ccc(-n2cnc3cc(-c4ccc(O)cc4)ccc32)cc1"
endpoint = "growth"
recorded_result = 102

[[record]]
compound = "CCCCC[n+]1ccc(SCC(=O)N(C)c2ccc(Oc3ccccc3)cc2)c2ccccc21"
endpoint = "growth"
recorded_result = 107

[[record]]
compound = "CC1(C)NCCC[C@]2(C)[C@H]3CC[C@@H]4[C@H]5[C@H](C(=O)/C=C/c6ccco6)CC[C@]5(CO)CC[C@@]4(C)[C@]3(C)CC[C@@H]12"
endpoint = "growth"
recorded_result = 56.2

[[record]]
compound = "O=[N+]([O-])CC(c1ccccc1F)c1c[nH]c2ccccc12 (stereo not given)"
endpoint = "growth"
recorded_result = 94.8

[[record]]
compound = "Brc1ccc(Nc2csc(-c3ccccn3)n2)cc1"
endpoint = "growth"
recorded_result = 96.7

[[record]]
compound = "COc1ccc(C(=O)CSc2nc(-c3cc(OC)ccc3OC)cc(-c3ccc(Cl)cc3)c2C#N)cc1"
endpoint = "growth"
recorded_result = 25.4

[[record]]
compound = "O=C1c2ccccc2CCC12OC2c1cn(-c2ccccc2)nc1-c1ccc(Cl)cc1 (stereo not given)"
endpoint = "growth"
recorded_result = 58.9

[[record]]
compound = "C=CCn1c(-c2ccc(-c3nc4ccc(C)cc4[nH]3)cc2)n[nH]c1=S"
endpoint = "growth"
recorded_result = 105

[[record]]
compound = "C/C(=N\\Nc1cc(C)nc2ccc(Br)cc12)c1ccc([N+](=O)[O-])cc1"
endpoint = "growth"
recorded_result = 69.8

[[record]]
compound = "CC(C)(C)c1cc(C=O)cc(C(C)(C)C)c1O"
endpoint = "growth"
recorded_result = 111

[[record]]
compound = "COc1ccc(OC)c(CCn2cncc2-c2c[nH]c3ccccc23)c1"
endpoint = "growth"
recorded_result = 92

[[record]]
compound = "Cn1ccnc1C(=O)/C=C/c1ccc(CC(=O)Nc2ccc(Cl)cc2)cc1"
endpoint = "growth"
recorded_result = -27.6

[[record]]
compound = "Cc1ccc(C(=O)/C(=C\\c2ccc([N+](=O)[O-])cc2)S(=O)Cc2ccc(Cl)cc2)cc1 (stereo not given)"
endpoint = "growth"
recorded_result = 30


----------
Collected growth values appear next to each entry.
Tested on: BT-549 breast
Experiment: NCI-60 one-dose screen, 48 h (100 = growth as untreated, 0 = no growth, -100 = all killed)
Conditions: 10 µM unless noted
This is part of a sample that, as a whole, favours compounds with a hit. Of some 83,000 tested, about 20% had one in any assay.
endpoint: growth (%)

[[record]]
smiles_structure = "CN1CCN(c2ccc(NC3=C(Cl)C(=O)c4ncccc4C3=O)cc2C(F)(F)F)CC1"
target_entity = "BT-549 breast"
units_symbol = "%"
recorded_result = 89.8

[[record]]
smiles_structure = "CC(=O)Nc1cccc(-c2ccc3c(c2)NC(=O)/C3=C\\c2ccc[nH]2)c1"
target_entity = "BT-549 breast"
units_symbol = "%"
recorded_result = 43.2

[[record]]
smiles_structure = "Nc1n[nH]c2cccc(C#Cc3cccc(C(=O)Nc4cc(CN5CCOCC5)cc(C(F)(F)F)c4)c3)c12"
target_entity = "BT-549 breast"
units_symbol = "%"
recorded_result = 57.9

[[record]]
smiles_structure = "CC(=O)Oc1ccc(/C=N/NC(N)=S)nc1"
target_entity = "BT-549 breast"
units_symbol = "%"
recorded_result = 32.7


----------
Collected growth values appear next to each entry.
System: NCI-H23 lung
Assay: NCI-60 one-dose screen, 48 h (100 = growth as untreated, 0 = no growth, -100 = all killed)
Settings: 10 µM unless noted
Compounds without any hit were thinned out: in the full panel of roughly 83,000, 20% have a hit. Activity calls are given as the source filed them. The calls were made as follows: active = growth percent below 10; inactive = the rest.
endpoint: growth

[[record]]
molecule = "CN1C(N2CCN(S(=O)(=O)c3ccccc3)CC2)=NS(=O)(=O)c2ccccc21"
recorded_result = "98.2% (inactive)"

[[record]]
molecule = "COc1ccc(C(=O)C2C(C#N)C(C#N)C3C=Cc4ccccc4N32)cc1 (stereo not given)"
recorded_result = "37.9% (inactive)"

[[record]]
molecule = "O=C1c2ccccc2C(=O)c2c([N+](=O)[O-])ccc(Cl)c21"
recorded_result = "89.3% (inactive)"

[[record]]
molecule = "COc1ccc(C(=O)c2cc(OC)c(OC)c(OC)c2)cc1O"
recorded_result = "27.7% (inactive)"

[[record]]
molecule = "Oc1ccc(C2c3ccccc3Oc3ccccc32)c2cccnc12"
recorded_result = "30.3% (inactive)"

[[record]]
molecule = "Nc1n[nH]c2cccc(C#Cc3cccc(C(=O)Nc4cccc(C(F)(F)F)c4)c3)c12"
recorded_result = "54% (inactive)"

[[record]]
molecule = "CCCCCCCC(=O)OCC/C=C/C1OC1C1OC(=O)/C=C\\C=C\\C(=O)N(C(C)=O)C(=O)/C=C(/C)CCC2OC2C1OC(=O)NC(C)=O (stereo not given)"
recorded_result = "84.6% (inactive)"

[[record]]
molecule = "Cc1cc2nc3c4cc([N+](=O)[O-])ccc4n(CCN(C)C)c3nc2cc1C"
recorded_result = "-26.8% (active)"

[[record]]
molecule = "COc1ccc(C(=O)NNc2nc(Cl)nc(N3CCN(C(c4ccccc4)c4ccccc4)CC3)n2)cc1"
recorded_result = "3.63% (active)"

[[record]]
molecule = "COCc1cnccc1NC1CCCCCC1"
recorded_result = "103% (inactive)"

[[record]]
molecule = "CC(=O)Nc1cccc(-c2ccc3c(c2)NC(=O)/C3=C\\c2ccc[nH]2)c1"
recorded_result = "27.8% (inactive)"

[[record]]
molecule = "CC(C)(C)c1ccc(NS(=O)(=O)c2ccc3nc(NC(=O)c4cnccn4)[nH]c3c2)cc1"
recorded_result = "52% (inactive)"

[[record]]
molecule = "COc1cc(C2C3CC4CCCC[C@H]4N3[C@@]3(C(=O)Nc4cc(Cl)ccc43)C2C(=O)c2nc3ccccc3[nH]2)cc(OC)c1OC (stereo not given in full)"
recorded_result = "75.1% (inactive)"

[[record]]
molecule = "CCOC(=O)C1=C(C)NC(SCc2cc(=O)oc3ccc(F)cc23)=N[C@@H]1c1cccc2ccccc12"
recorded_result = "94.3% (inactive)"

[[record]]
molecule = "CNC(=O)c1cccc(Cn2nc(C)c(NC(=O)c3ccc(COc4ccc(C(F)(F)F)cc4C)cc3)c2C)c1"
recorded_result = "47.3% (inactive)"

[[record]]
molecule = "C=CC(=O)N[C@@H](/C=C/C(=O)OCC)Cc1ccc(-c2cc(Cl)cc(Cl)c2)cc1"
recorded_result = "15.6% (inactive)"

[[record]]
molecule = "COc1cc2cc(Oc3cccc(NC(=O)Nc4cc(C(F)(F)F)cc(C(F)(F)F)c4)c3)c(C)nc2cc1OC"
recorded_result = "2.28% (active)"

[[record]]
molecule = "O=C(CCN1CCCC1)Nc1ccc2c(NCc3ccccc3)c3ccccc3nc2c1"
recorded_result = "-29.8% (active)"

[[record]]
molecule = "O=[N+]([O-])CC(c1ccccc1F)c1c[nH]c2ccccc12 (stereo not given)"
recorded_result = "82.5% (inactive)"

[[record]]
molecule = "CCOC(=O)c1cc(C(=O)c2ccc(Br)cc2)n2ccc(/C=C/c3cc[n+](CC(=O)c4ccc(OC)cc4)cc3)cc12"
recorded_result = "92.5% (inactive)"

